# growth annotations
tested on: NCI-H522 lung; test: NCI-60 one-dose screen, 48 h (100 = growth as untreated, 0 = no growth, -100 = all killed); conditions: 10 µM
About 83,000 compounds went through this panel and 20% of them were active in at least one assay; those are over-represented in the sample as a whole.

{"Compound": "CC/C(=C(/c1ccc(OCCN(C)C)cc1)c1ccc(OC(=O)CCCCCCCCC(=O)c2c(C)[nH]c(/C=C3\\N=C(c4ccc[nH]4)C=C3OC)c2C)cc1)c1ccccc1", "Endpoint unit": "%", "growth": 54.5}
{"Compound": "CCN(CC)CCCC(C)Nc1nc(-c2ccc(OC)cc2)nc2cc(Cl)ccc12 (stereo not given)", "Endpoint unit": "%", "growth": 35.6}
{"Compound": "O=C(Nc1ccc(CO)cc1)c1ccccc1Nc1ccnc(C(F)(F)F)c1", "Endpoint unit": "%", "growth": 93.7}
{"Compound": "NC(=O)SCC(=O)Nc1ccc(S(N)(=O)=O)cc1", "Endpoint unit": "%", "growth": 105}
{"Compound": "Cc1cccc2c1O/C(=C\\c1ccc([N+](=O)[O-])o1)C2=O", "Endpoint unit": "%", "growth": -77.4}
